Molecular target: UniProt P50053
Sequence (P50053 1-298): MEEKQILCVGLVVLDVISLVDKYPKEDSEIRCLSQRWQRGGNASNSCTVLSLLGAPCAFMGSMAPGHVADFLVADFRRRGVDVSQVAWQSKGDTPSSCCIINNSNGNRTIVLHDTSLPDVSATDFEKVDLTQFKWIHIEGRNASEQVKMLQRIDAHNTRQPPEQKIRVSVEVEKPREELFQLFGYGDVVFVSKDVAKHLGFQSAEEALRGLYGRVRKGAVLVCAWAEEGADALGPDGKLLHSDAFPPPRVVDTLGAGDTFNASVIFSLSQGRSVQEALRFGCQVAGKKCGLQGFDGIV
Assay: fructose-dependent ATP depletion assay in HK-2 (human proximal tubule) cell lysates, KHK-deficient HK-2 cells as background control
Format: biochemical
pIC50: −log10 of the molar value.
Experimental readout: pIC50

[[record]]
input_smiles = "O=c1cc(-c2ccc(O)c(O)c2)oc2cc(O)cc(O)c12"
value_measured = 4.95

